Catalogue of Bliss interaction score readings, one per entry.
Tested on: S. aureus DSM 20231;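 note: first quartile when negative (synergy) and third quartile when positive (antagonism)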
Experiment: Bliss interaction score (quartile over a dose matrix) (fitness difference); higher = more antagonism (negative = synergy)
Note: the reply should be a number with no unit written.

O=C(O)c1cn(C2CC2)c2cc(N3CCNCC3)c(F)cc2c1=O [Ciprofloxacin] + C[C@@H](O)[C@H]1C(=O)N2C(C(=O)O)=C(SCCNC=N)C[C@H]12 [Imipenem]
0.0301

query: Name the recorded Bliss interaction score for CC(=O)Oc1ccccc1C(=O)O [Acetylsalicylicacid] + CC[C@H]1OC(=O)[C@H](C)C(=O)[C@H](C)[C@@H](O[C@@H]2O[C@H](C)C[C@H](N(C)C)[C@H]2O)[C@](C)(OC)C[C@@H](C)C(=O)[C@H](C)[C@H]2N(CCCCn3cnc(-c4cccnc4)c3)C(=O)O[C@]12C [Telithromycin] .
result: 0.0695

query: Name the recorded Bliss interaction score for N#CC(C#N)=NNc1cccc(Cl)c1 [CCCP] + COc1ccc(C[C@H](N)C(=O)N[C@H]2[C@@H](O)[C@H](n3cnc4c(N(C)C)ncnc43)O[C@@H]2CO)cc1 [Puromycin] .
result: 0.0553

query: Name the recorded Bliss interaction score for O=C(O)c1cn(C2CC2)c2cc(N3CCNCC3)c(F)cc2c1=O [Ciprofloxacin] + CO[C@H]1/C=C/O[C@@]2(C)Oc3c(C)c(O)c4c(O)c(c(/C=N/N5CCN(C)CC5)c(O)c4c3C2=O)NC(=O)/C(C)=C\C=C\[C@H](C)[C@H](O)[C@@H](C)[C@@H](O)[C@@H](C)[C@H](OC(C)=O)[C@@H]1C [Rifampicin] .
result: -0.0712

query: Name the recorded Bliss interaction score for CO/N=C(\C(=O)N[C@@H]1C(=O)N2C(C(=O)O)=C(COC(N)=O)CS[C@H]12)c1ccco1 [Cefuroxime] + CC[C@H]1OC(=O)[C@H](C)[C@@H](O[C@H]2C[C@@](C)(OC)[C@@H](O)[C@H](C)O2)[C@H](C)[C@@H](O[C@@H]2O[C@H](C)C[C@H](N(C)C)[C@H]2O)[C@](C)(O)C[C@@H](C)C(=O)[C@H](C)[C@@H](O)[C@]1(C)O [Erythromycin] .
result: -0.255

query: Name the recorded Bliss interaction score for Cc1ncc([N+](=O)[O-])n1CCO [Metronidazole] + CO[C@H]1/C=C/O[C@@]2(C)Oc3c(C)c(O)c4c(O)c(c(/C=N/N5CCN(C)CC5)c(O)c4c3C2=O)NC(=O)/C(C)=C\C=C\[C@H](C)[C@H](O)[C@@H](C)[C@@H](O)[C@@H](C)[C@H](OC(C)=O)[C@@H]1C [Rifampicin] .
result: -0.0591

query: Name the recorded Bliss interaction score for CN(C)c1cc(NC(=O)CNC(C)(C)C)c(O)c2c1C[C@H]1C[C@H]3[C@H](N(C)C)C(O)=C(C(N)=O)C(=O)[C@@]3(O)C(O)=C1C2=O [Tigecycline] + COc1cc(Cc2cnc(N)nc2N)cc(OC)c1OC [Trimethoprim] .
result: -0.0664
